# Test system: HCT116 MTAP KO cells
# EXPERIMENT: Inhibitory activity against cell proliferation (CellTiter Glo, 6 days), HCT116 MTAP KO
# Assay type: cell-based
# STATED CONDITIONS: ratio of IC50 HCT116-WT / HCT116 MTAP KO
# Protocol: HCT116-WT (ATCC, CCL-247) and HCT116 MTAP KO (Nanjing Cobioer, CBP75002) cells were seeded into white low-transparency sterile 96-well cell culture plates at a density of 250 cells per well respectively, and the culture medium was McCoy's 5A Medium+10% FBS. The plates were placed under the condition of 37°C and 5% CO2 to be cultured overnight. […] The IC50 values for inhibition of the compounds on cell viability were calculated in X1fit 5.0 software. […]
OBSERVED PROPERTY: Selectivity HCT 116-WT/ HCT116 MTAP KO
# print the numeric value only

query: For the molecule Cc1cc2nc(N)c3cnn(C)c3c2cc1C(=O)N1CC(C)CN1c1ncc(-c2cscn2)cc1F (stereo not shown) , report Selectivity HCT 116-WT/ HCT116 MTAP KO.
result: 21.24

query: For the molecule Cc1cc2cc(C(=O)N(Cc3ccc(C(F)(F)F)cn3)N(C)c3ncc4ccn(C)c4n3)ccc2nc1N , report Selectivity HCT 116-WT/ HCT116 MTAP KO.
result: 16.41

query: For the molecule Cc1cc2cc(C(=O)N(Cc3ccc(-c4cnn(C(F)(F)F)c4)cn3)N(C)c3ncccc3F)ccc2nc1N , report Selectivity HCT 116-WT/ HCT116 MTAP KO.
result: 18.29

query: For the molecule Cc1cc2nc(N)c3c(c2cc1C(=O)N1CC(C)CN1c1ncccc1F)COC3 (stereo not shown) , report Selectivity HCT 116-WT/ HCT116 MTAP KO.
result: 22.53

query: For the molecule Cc1cc2cc(C(=O)N(Cc3ccc(C(F)(F)C(F)(F)F)cn3)N(C)c3ncccn3)ccc2nc1N , report Selectivity HCT 116-WT/ HCT116 MTAP KO.
result: 26.64

query: For the molecule Cc1cc2cc(C(=O)N(Cc3ccc(N4CC(F)(F)C4)cn3)N(C)c3ncccn3)ccc2nc1N , report Selectivity HCT 116-WT/ HCT116 MTAP KO.
result: 13.00

query: For the molecule COC1CN(C(=O)c2cc3c(cc2C)nc(N)c2cnn(C)c23)N(c2ncccc2F)C1 (stereo not shown) , report Selectivity HCT 116-WT/ HCT116 MTAP KO.
result: 39.50

query: For the molecule Cc1cc2nc(N)c3cnn(C)c3c2cc1C(=O)N1CC2(CN1c1ncccc1F)CC(F)(F)C2 , report Selectivity HCT 116-WT/ HCT116 MTAP KO.
result: 24.33

query: For the molecule Cc1cc2nc(N)c3cnn(C)c3c2cc1C(=O)N1CC(C)CN1c1cnccn1 (stereo not shown) , report Selectivity HCT 116-WT/ HCT116 MTAP KO.
result: 34.46

query: For the molecule [2H]C([2H])([2H])c1cc2cc(C(=O)N(Cc3ccc(-c4nncs4)cn3)N(c3ncccn3)C3CC3)ccc2nc1N , report Selectivity HCT 116-WT/ HCT116 MTAP KO.
result: 24.96

query: For the molecule Cc1cc2nc(N)c3cnn(C)c3c2cc1C(=O)N1CC(C)CN1c1ccccc1C(F)(F)F (stereo not shown) , report Selectivity HCT 116-WT/ HCT116 MTAP KO.
result: 21.39

query: For the molecule Cc1cc2cc(C(=O)N(Cc3ccc(-c4nccs4)cn3)N(C)c3ncccn3)ccc2nc1N , report Selectivity HCT 116-WT/ HCT116 MTAP KO.
result: 37.50

query: For the molecule CN(c1ncccn1)N(Cc1ccc(C(F)(F)F)cn1)C(=O)c1ccc2nc(N)c(Cl)cc2c1 , report Selectivity HCT 116-WT/ HCT116 MTAP KO.
result: 19.56

query: For the molecule [2H]C([2H])([2H])N(c1ncccn1)N(Cc1ccc(Br)cn1)C(=O)c1ccc2nc(N)c(C)cc2c1 , report Selectivity HCT 116-WT/ HCT116 MTAP KO.
result: 24.16

query: For the molecule CC1CN(C(=O)c2cc3c(cc2F)nc(N)c2cnn(C)c23)N(c2ncccc2F)C1 (stereo not shown) [Example 393] , report Selectivity HCT 116-WT/ HCT116 MTAP KO.
result: 51.22

query: For the molecule Cc1cc2cc(C(=O)N(Cc3ccc(-c4cnn(C)c4)cn3)N(C)c3ncccc3F)ccc2nc1N , report Selectivity HCT 116-WT/ HCT116 MTAP KO.
result: 20.56

query: For the molecule Cc1cc2cc(C(=O)N(Cc3ccc(-c4ccc(N5CCC5)nc4)cn3)N(C)c3ncccn3)ccc2nc1N , report Selectivity HCT 116-WT/ HCT116 MTAP KO.
result: 16.83

query: For the molecule Cc1cc2cc(C(=O)N(Cc3ccc(-c4cnsc4)cn3)N(C)c3ncccn3)ccc2nc1N , report Selectivity HCT 116-WT/ HCT116 MTAP KO.
result: 25.79

query: For the molecule Cc1cc2nc(N)c3cnn(C)c3c2cc1C(=O)N1CCCN1c1ncc(-c2cnn(C)c2)cc1F , report Selectivity HCT 116-WT/ HCT116 MTAP KO.
result: 60.37

query: For the molecule Cc1cc2cc(C(=O)N(Cc3ccc(-c4cncnc4)cn3)N(C)c3ncccn3)ccc2nc1N , report Selectivity HCT 116-WT/ HCT116 MTAP KO.
result: 25.35

query: For the molecule Cc1cc2nc(N)c3cnn(C)c3c2cc1C(=O)N1CC(C)CN1c1cccc(Cl)n1 (stereo not shown) , report Selectivity HCT 116-WT/ HCT116 MTAP KO.
result: 19.79

query: For the molecule COC1CN(C(=O)c2cc3c(cc2Cl)nc(N)c2cnn(C)c23)N(c2cccc(F)n2)C1 (stereo not shown) , report Selectivity HCT 116-WT/ HCT116 MTAP KO.
result: 21.70

query: For the molecule Cc1cc2nc(N)c3ccncc3c2cc1C(=O)N1CC(C)CN1c1ncccc1F (stereo not shown) , report Selectivity HCT 116-WT/ HCT116 MTAP KO.
result: 10.79

query: For the molecule Cc1cc2cc(C(=O)N(Cc3ccc(-c4ccccc4)cn3)N(C)c3ncccn3)ccc2nc1N , report Selectivity HCT 116-WT/ HCT116 MTAP KO.
result: 14.26

query: For the molecule COC1CN(C(=O)c2cc3c(cc2C)nc(N)c2cnn(C)c23)N(c2cc(F)ccc2F)C1 (stereo not shown) , report Selectivity HCT 116-WT/ HCT116 MTAP KO.
result: 24.91

query: For the molecule Cc1cc2cc(C(=O)N(Cc3ccc(-c4cccs4)cn3)N(C)c3ncccn3)ccc2nc1N , report Selectivity HCT 116-WT/ HCT116 MTAP KO.
result: 23.93

query: For the molecule Cc1cnc(N2CC(C)CN2C(=O)c2cc3c(cc2C)nc(N)c2cnn(C)c23)c(F)c1 (stereo not shown) , report Selectivity HCT 116-WT/ HCT116 MTAP KO.
result: 38.96

query: For the molecule Cc1cc2cc(C(=O)N(Cc3ccc(-c4cscn4)cn3)N(C)c3ncccn3)ccc2nc1N , report Selectivity HCT 116-WT/ HCT116 MTAP KO.
result: 27.16

query: For the molecule COc1ccc(-c2ccc(CN(C(=O)c3ccc4nc(N)c(C)cc4c3)N(C)c3ncccn3)nc2)cn1 , report Selectivity HCT 116-WT/ HCT116 MTAP KO.
result: 26.22

query: For the molecule Cc1cc2cc(C(=O)N(Cc3ccc(-c4ccc(N)nc4)cn3)N(C)c3ncccn3)ccc2nc1N , report Selectivity HCT 116-WT/ HCT116 MTAP KO.
result: 23.69

query: For the molecule Cc1cc2cc(C(=O)N(Cc3ccc(-c4nncs4)cn3)N(C)c3ncccn3)ccc2nc1N , report Selectivity HCT 116-WT/ HCT116 MTAP KO.
result: 47.86
